System: OVCAR-3 ovarian
Experiment: NCI tumour cell line growth inhibition, 48 h; in the data active = GI50 below about 0.43 µM; inactive = the rest
Outcomes: active, inactive

INSERT INTO assay_data (compound, target_entity, group_label) VALUES
  ('CCN(CC)S(=O)(=O)c1ccc(OC)c(Nc2ncc(-c3ccccc3)o2)c1', 'OVCAR-3 ovarian', 'inactive'),
  ('Oc1ccc(-c2nnc3sc(-c4ccc(F)cc4)nn23)cc1', 'OVCAR-3 ovarian', 'inactive'),
  ('C[C@H](Nc1ncnc2nc[nH]c12)c1cc2cccc(Cl)c2c(=O)n1-c1ccccc1', 'OVCAR-3 ovarian', 'inactive'),
  ('C=CCc1c2c(c(OC)c3ccoc13)C(=O)/C(=C/c1ccccc1OC)O2', 'OVCAR-3 ovarian', 'inactive'),
  ('COc1c(CCC[P+](c2ccccc2)(c2ccccc2)c2ccccc2)cc2c(c1OC)OCO2', 'OVCAR-3 ovarian', 'inactive'),
  ('Cc1c(C(=O)/C=C/c2csc3ccccc23)[n+](=O)c2ccccc2n1[O-]', 'OVCAR-3 ovarian', 'inactive'),
  ('COc1ccc2nc3cc([N+](=O)[O-])ccc3c(NCCCCCN(C)C)c2c1', 'OVCAR-3 ovarian', 'inactive'),
  ('CNC(=O)n1ccc2cc(Oc3ccnc(NC(=O)c4ccc(C5CCN(CCO)CC5)cc4)c3)c(OCCOC)cc21', 'OVCAR-3 ovarian', 'inactive'),
  ('CC1SC(c2c(Cl)cccc2Cl)N(NC(=O)c2[nH]c3ccc(F)cc3c2-c2ccccc2)C1=O (stereo not drawn)', 'OVCAR-3 ovarian', 'inactive'),
  ('CN(CCCN)CCCNc1nc2ccccc2c2[nH]c3ccccc3c12', 'OVCAR-3 ovarian', 'active'),
  ('Nc1nc(Cl)cc(OCC2(O)CC(COC(=O)c3ccccc3)C2)n1 (stereo not drawn)', 'OVCAR-3 ovarian', 'inactive'),
  ('Cc1[c-]onc1C.Cc1[c-]onc1C.[Ag].[Ag].[NH-]S(=O)(=O)c1ccc(N=Nc2cc(N=Nc3ccc(S([NH-])(=O)=O)cc3)c3c(NC(=O)C(Cl)Cl)cccc3c2OC(=O)C(Cl)Cl)cc1', 'OVCAR-3 ovarian', 'inactive'),
  ('CC(C)(C)C#CC1=C(Br)C(=O)OC1', 'OVCAR-3 ovarian', 'inactive'),
  ('Nc1c(C(=O)Nc2cccc([N+](=O)[O-])c2)sc2nc3c(cc12)C(O)CCC3 (stereo not drawn)', 'OVCAR-3 ovarian', 'inactive'),
  ('COc1ccc2c(c1)O/C(=C\c1cccc(OCC(=O)Nc3nc4c(s3)CCCC4)c1)C2=O', 'OVCAR-3 ovarian', 'inactive'),
  ('O=C1c2ccccc2-c2c1c1ccccc1c(=O)n2CCCNCCCNCCCn1c2c(c3ccccc3c1=O)C(=O)c1ccccc1-2', 'OVCAR-3 ovarian', 'active'),
  ('CCN(CC)c1ccc(C(=C2C=CC(=[N+](CC)Cc3cccc(S(=O)(=O)O)c3)C=C2)c2ccc(N(CC)Cc3cccc(S(=O)(=O)O)c3)cc2)cc1', 'OVCAR-3 ovarian', 'inactive'),
  ('N#Cc1cnc2cc(OC[C@H](O)CO)c(NC(=O)CC3CSSC3)cc2c1Nc1ccc(OCc2cccc(F)c2)c(Cl)c1', 'OVCAR-3 ovarian', 'inactive');
